Tgt: T1, fHbp mutant 0012 (Neisseria meningitidis, fHbp v1.1 mutant, point mutant)
T1 chain: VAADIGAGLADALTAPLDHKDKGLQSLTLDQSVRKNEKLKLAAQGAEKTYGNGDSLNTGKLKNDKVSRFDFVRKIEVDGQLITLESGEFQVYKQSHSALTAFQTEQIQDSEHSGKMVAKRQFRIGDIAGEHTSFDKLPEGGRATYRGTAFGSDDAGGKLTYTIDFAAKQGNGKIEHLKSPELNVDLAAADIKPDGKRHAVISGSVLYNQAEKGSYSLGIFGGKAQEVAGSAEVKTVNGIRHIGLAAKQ
Protocol text: BLI
Recorded conditions: both partners purified
Item-by-item account of Kd
Readout type: Kd (nM)

[
  {
    "Binder": "mAb 4B3 (human) (antibody, V domains shown, also called 4B3-2; source: Expi293, purified (MabSelect SuRe, SEC); copies: 2 + 2) VH: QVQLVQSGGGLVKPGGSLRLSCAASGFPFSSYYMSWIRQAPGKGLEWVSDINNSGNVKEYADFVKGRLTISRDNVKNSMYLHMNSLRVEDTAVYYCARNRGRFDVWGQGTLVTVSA VL: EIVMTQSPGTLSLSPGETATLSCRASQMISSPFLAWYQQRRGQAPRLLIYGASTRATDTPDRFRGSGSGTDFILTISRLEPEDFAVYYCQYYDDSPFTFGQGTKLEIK",
    "Value comparator": "=",
    "Measured value": 1.39
  },
  {
    "Binder": "mAb 1E6 (human) (antibody, V domains shown, source: Expi293, purified (MabSelect SuRe, SEC); copies: 2 + 2) VH: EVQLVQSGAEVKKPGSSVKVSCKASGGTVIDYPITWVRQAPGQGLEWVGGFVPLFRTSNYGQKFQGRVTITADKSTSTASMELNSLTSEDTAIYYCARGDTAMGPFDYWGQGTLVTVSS VL: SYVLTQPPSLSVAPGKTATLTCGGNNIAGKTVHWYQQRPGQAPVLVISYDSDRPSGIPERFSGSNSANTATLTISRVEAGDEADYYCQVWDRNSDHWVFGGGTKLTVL",
    "Value comparator": "=",
    "Measured value": 3.52
  },
  {
    "Binder": "mAb 12C1 (mouse) (antibody, V domains shown, source: Expi293, purified (MabSelect SuRe, SEC); copies: 2 + 2) VH: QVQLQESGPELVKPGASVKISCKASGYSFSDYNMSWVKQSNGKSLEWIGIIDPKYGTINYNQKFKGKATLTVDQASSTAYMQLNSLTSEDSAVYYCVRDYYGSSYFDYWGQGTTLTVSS VL: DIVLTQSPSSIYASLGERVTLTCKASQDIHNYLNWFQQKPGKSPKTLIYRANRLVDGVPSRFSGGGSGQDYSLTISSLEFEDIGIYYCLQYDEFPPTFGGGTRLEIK",
    "Value comparator": "<",
    "Measured value": 0.001
  },
  {
    "Binder": "mAb JAR5 (mouse) (antibody, V domains shown, source: Expi293, purified (MabSelect SuRe, SEC); copies: 2 + 2) VH: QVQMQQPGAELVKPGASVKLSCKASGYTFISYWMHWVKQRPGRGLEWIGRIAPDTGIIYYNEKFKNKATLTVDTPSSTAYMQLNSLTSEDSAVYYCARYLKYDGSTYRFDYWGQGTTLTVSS VL: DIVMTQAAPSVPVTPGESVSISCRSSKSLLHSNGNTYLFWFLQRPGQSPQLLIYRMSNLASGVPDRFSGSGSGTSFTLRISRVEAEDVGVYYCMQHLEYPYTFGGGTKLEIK",
    "Value comparator": "=",
    "Measured value": 0.418
  }
]
